Entries and their measured log10(IC50) follow.
Target Entity: T1, PCSK9 D374Y mutant protein inserted with biotin receiving peptide BP15 and His-tag: PCSK9-D374Y-BP15-His6 (human, UniProt Q8NBP7 153-692; A8T644 31-152, biotin on the BP15 biotin receiving peptide)
T1 construct: also called PCSK9-Y; mutant PCSK9
Test: competition ELISA, LDLR-FC coated, biotin PCSK9-Y + antibody
The figures below represent log10 of IC50, where IC50 is stated in µg/mL.

h011-3192 (antibody, V domains shown) VH: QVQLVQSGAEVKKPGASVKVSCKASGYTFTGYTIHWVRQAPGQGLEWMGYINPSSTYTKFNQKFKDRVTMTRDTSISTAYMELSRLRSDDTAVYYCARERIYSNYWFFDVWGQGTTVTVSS VL: DIVMTQSPSSLSASVGDRVTITCKASQNVYTEVAWYQQKPGKSPKLLIYSASNRYTGVPSRFSGSGSGTDFTLTISSLQPEDFATYFCQQYSSYPYTFGGGTKVEIK    0.37

QUERY: Note log10(IC50) for the binder shown: h011-3190 (antibody, V domains shown) VH: QVQLVQSGAEVKKPGASVKVSCKASGYTFTGYTIHWVRQAPGQGLEWMGEINPSSTYTKFNQKFKDRVTMTRDTSISTAYMELSRLRSDDTAVYYCARERIYSNYWFFDVWGQGTTVTVSS VL: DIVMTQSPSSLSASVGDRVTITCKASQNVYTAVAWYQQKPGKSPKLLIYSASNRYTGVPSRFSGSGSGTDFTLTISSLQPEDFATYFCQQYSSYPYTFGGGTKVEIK
RESULT: -0.65

QUERY: Note log10(IC50) for the binder shown: humanized antibody h011-3 (antibody, V domains shown, h011_VH.1 with h011_VL.1B) VH: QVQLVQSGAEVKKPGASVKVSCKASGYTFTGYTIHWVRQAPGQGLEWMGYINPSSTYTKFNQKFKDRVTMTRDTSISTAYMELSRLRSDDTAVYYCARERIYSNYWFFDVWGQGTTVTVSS VL: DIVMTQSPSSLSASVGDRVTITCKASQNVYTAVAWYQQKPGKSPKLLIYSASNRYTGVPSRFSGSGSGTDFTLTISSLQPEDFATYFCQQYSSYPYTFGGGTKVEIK
RESULT: 0.74

QUERY: Note log10(IC50) for the binder shown: h011-3133 (antibody, V domains shown) VH: QVQLVQSGAEVKKPGASVKVSCKASGYTFTGYEIHWVRQAPGQGLEWMGYINPSATYTKFNQKFKDRVTMTRDTSISTAYMELSRLRSDDTAVYYCARERIYSNYWFFDVWGQGTTVTVSS VL: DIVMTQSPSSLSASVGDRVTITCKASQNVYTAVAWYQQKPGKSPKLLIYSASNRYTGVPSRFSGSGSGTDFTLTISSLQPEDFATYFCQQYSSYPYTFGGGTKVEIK
RESULT: -0.76

QUERY: Note log10(IC50) for the binder shown: h011-3121 (antibody, V domains shown) VH: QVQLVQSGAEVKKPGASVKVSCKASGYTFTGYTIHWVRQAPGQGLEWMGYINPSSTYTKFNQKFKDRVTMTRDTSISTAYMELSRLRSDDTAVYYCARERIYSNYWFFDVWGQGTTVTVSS VL: DIVMTQSPSSLSASVGDRVTITCKASQNVYTAVAWYQQKPGKSPKLLIYSASNRYTGVPSRFSGSGSGTDFTLTISSLQPEDFATYFCQQLSSQPETFGGGTKVEIK
RESULT: -0.76

QUERY: Note log10(IC50) for the binder shown: h011-3147 (antibody, V domains shown) VH: QVQLVQSGAEVKKPGASVKVSCKASGYTFTGYTIHWVRQAPGQGLEWMGEIIPSSTYTKFNQKFKDRVTMTRDTSISTAYMELSRLRSDDTAVYYCARERIYSNYWFFDVWGQGTTVTVSS VL: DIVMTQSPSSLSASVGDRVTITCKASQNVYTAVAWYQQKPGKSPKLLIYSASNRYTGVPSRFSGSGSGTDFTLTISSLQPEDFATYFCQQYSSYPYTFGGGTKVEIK
RESULT: -0.76

QUERY: Note log10(IC50) for the binder shown: h011-3050 (antibody, V domains shown) VH: QVQLVQSGAEVKKPGASVKVSCKASGYTFTGYTIHWVRQAPGQGLEWMGEILPSSTYTKFNQKFKDRVTMTRDTSISTAYMELSRLRSDDTAVYYCARERIYSNYWFFDVWGQGTTVTVSS VL: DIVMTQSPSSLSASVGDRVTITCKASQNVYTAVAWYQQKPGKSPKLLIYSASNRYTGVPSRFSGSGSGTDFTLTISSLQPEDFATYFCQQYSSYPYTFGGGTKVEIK
RESULT: -0.91

QUERY: Note log10(IC50) for the binder shown: h011-3195 (antibody, V domains shown) VH: QVQLVQSGAEVKKPGASVKVSCKASGYTFTGYTIHWVRQAPGQGLEWMGYINPSSTYTKFNQKFKDRVTMTRDTSISTAYMELSRLRSDDTAVYYCARERIFSNYWFFDVWGQGTTVTVSS VL: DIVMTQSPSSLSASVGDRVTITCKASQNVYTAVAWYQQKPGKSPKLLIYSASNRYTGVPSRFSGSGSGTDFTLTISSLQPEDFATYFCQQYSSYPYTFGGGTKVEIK
RESULT: -0.16

QUERY: Note log10(IC50) for the binder shown: h011-3181 (antibody, V domains shown) VH: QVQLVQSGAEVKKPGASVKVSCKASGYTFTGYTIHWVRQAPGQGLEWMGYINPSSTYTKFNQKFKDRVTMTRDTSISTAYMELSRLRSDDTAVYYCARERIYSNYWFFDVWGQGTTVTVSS VL: DIVMTQSPSSLSASVGDRVTITCKASQNVYTAVAWYQQKPGKSPKLLIYSASNRYTGVPSRFSGSGSGTDFTLTISSLQPEDFATYFCQQLSSYPDTFGGGTKVEIK
RESULT: -0.63

QUERY: Note log10(IC50) for the binder shown: h011-3194 (antibody, V domains shown) VH: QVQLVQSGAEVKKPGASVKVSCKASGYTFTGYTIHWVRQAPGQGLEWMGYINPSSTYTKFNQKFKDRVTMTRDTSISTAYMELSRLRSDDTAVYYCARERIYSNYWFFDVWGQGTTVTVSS VL: DIVMTQSPSSLSASVGDRVTITCKASQNVYTAVAWYQQKPGKSPKLLIYSASNRYTGVPSRFSGSGSGTDFTLTISSLQPEDFATYFCQQLSSYPYTFGGGTKVEIK
RESULT: -0.24

These data points were gathered from patent US20200270365A1.
